Tgt: 20S proteasome beta5 subunit (Proteasome Macropain subunit MB1) (Homo sapiens)
Sequence (P28074 whole entry): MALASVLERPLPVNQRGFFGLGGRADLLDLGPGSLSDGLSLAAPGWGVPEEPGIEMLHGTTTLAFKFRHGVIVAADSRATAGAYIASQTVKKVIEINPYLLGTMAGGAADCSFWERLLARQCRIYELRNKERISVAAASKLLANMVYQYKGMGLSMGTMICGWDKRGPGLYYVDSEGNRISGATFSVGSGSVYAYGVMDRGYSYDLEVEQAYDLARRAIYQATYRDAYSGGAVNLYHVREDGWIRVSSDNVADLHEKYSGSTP
Test description: Inhibition of human 20S proteasome beta5 subunit using suc-LLVY-AMC as substrate at 150 nM after 60 to 120 mins by fluorescence assay relative to control
Condition info: probe suc-LLVY-AMC
Measure name: inhibition at 0.15 µM (%)
Just the number in %, nothing appended.

Exam item: Report measured inhibition at 0.15 µM; entry is CCCCCC(=O)N[C@H](C(=O)N[C@@H](CCS(C)(=O)=O)C(=O)N[C@@H](CC(C)C)C(=O)[C@@]1(C)CO1)C(C)C
Marked response: 98
